system: MCF-7/ADR cells; assay: Cytotoxicity (toxic effect) of each piperazine derivative alone, SRB assay; type: cell-based, human; settings: 5 μM, 2 h incubation
measured attribute: cell survival ratio
Give bare numbers.

Field: example entries. Status: answers known.
molecule: CC(C)(C)c1cc(NC(=O)CN(CC(=O)N2CCN(C(c3ccccc3)c3ccc(Cl)cc3)CC2)C(=O)c2ccccc2)no1 (stereo not drawn)
system name: MCF-7/ADR cells
measured attribute: cell survival ratio
measured: 100.72
--
molecule: O=C(CN(CC(=O)N1CCN(C(c2ccccc2)c2ccc(Cl)cc2)CC1)C(=O)Cc1ccccc1)Nc1nc(-c2ccc(Cl)cc2)cs1 (stereo not drawn)
system name: MCF-7/ADR cells
measured attribute: cell survival ratio
measured: 102.70
--
molecule: O=C(CN(CC(=O)N1CCN(C(c2ccccc2)c2ccc(Cl)cc2)CC1)C(=O)c1ccc2ccccc2c1)NCc1ccccc1 (stereo not drawn)
system name: MCF-7/ADR cells
measured attribute: cell survival ratio
measured: 89.77
--
molecule: COc1ccc(CNC(=O)CN(CC(=O)N2CCN(C(c3ccccc3)c3ccc(Cl)cc3)CC2)C(=O)c2ccccc2)cc1 (stereo not drawn)
system name: MCF-7/ADR cells
measured attribute: cell survival ratio
measured: 101.71
--
molecule: O=C(CN(CC(=O)N1CCN(C(c2ccccc2)c2ccc(Cl)cc2)CC1)C(=O)c1ccc2ccccc2c1)Nc1nc(-c2ccc(Cl)cc2)cs1 (stereo not drawn)
system name: MCF-7/ADR cells
measured attribute: cell survival ratio
measured: 102.03

Okay, now this molecule:
Q) What value of cell survival ratio has been recorded for this entry: CC(=O)N(CC(=O)Nc1nc(-c2ccc(Br)cc2)cs1)CC(=O)N1CCN(C(c2ccccc2)c2ccc(Cl)cc2)CC1 (stereo not drawn)
A) 100.76

This collection of values is drawn from paper PMC6359037.
